Would you mind telling me the reported pKi of each entry?
# tested target: full-length hepatitis C NS3 protease enzyme with NS4A cofactor (HCV NS3/4A protease) (Hepatitis C virus genotype 1a, UniProt P27958)
# Construct: full-length hepatitis C NS3 protease enzyme
# Sequence (P27958 1027-1657, other chains not shown): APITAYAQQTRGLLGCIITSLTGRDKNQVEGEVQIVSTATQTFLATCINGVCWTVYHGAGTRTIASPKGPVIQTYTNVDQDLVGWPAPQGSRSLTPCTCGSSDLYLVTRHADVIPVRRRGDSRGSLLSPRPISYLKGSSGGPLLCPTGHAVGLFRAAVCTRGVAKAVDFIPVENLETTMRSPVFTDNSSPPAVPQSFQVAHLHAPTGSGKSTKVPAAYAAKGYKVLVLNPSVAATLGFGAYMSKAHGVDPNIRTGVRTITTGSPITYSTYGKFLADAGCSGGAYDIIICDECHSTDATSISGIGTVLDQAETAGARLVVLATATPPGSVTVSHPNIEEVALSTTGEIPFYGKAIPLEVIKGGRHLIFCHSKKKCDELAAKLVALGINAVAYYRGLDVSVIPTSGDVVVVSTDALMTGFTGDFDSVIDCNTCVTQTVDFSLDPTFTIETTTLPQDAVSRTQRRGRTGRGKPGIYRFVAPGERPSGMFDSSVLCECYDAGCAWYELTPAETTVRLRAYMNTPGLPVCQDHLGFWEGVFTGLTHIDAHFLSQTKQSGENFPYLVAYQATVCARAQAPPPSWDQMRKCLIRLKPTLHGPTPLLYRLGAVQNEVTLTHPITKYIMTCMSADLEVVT
# assay summary: Enzymatic inhibition assay of HCV NS3/4A protease
One number for each entry, as −log10 of the molar value.

COc1ccc2c(O[C@@H]3C[C@H]4C(=O)N[C@]5(C(=O)NS(=O)(=O)C6CC6)C[C@H]5/C=C\CCCCNC(=O)N4C3)cc(-c3nc(C(C)C)cs3)nc2c1    9.40

Your task in this section: give pKi for each listed record.
1. COc1ccc2c(O[C@@H]3C[C@H]4C(=O)N[C@]5(C(=O)NS(=O)(=O)C6(C)CC6)C[C@H]5/C=C\CCCCCNC(=O)N4C3)cc(-c3nc(C(C)C)cs3)nc2c1
2. COc1ccc2c(O[C@@H]3C[C@H]4C(=O)N[C@]5(C(=O)NS(=O)(=O)C6(C)CC6)C[C@H]5/C=C\CCCCNC(=O)N4C3)cc(-c3nc(C(C)C)cs3)nc2c1
3. COc1ccc2c(O[C@@H]3C[C@H]4C(=O)N[C@]5(C(=O)NS(=O)(=O)C6CC6)C[C@H]5/C=C\CCCCCNC(=O)N4C3)cc(-c3nc(C(C)C)cs3)nc2c1

[9.52, 9.52, 9.92]

----------
# assay summary: in vitro
# stated conditions: human, Caco-2
Would you mind telling me the reported Papp at 120 min, 10 μM of each entry?
Give bare numbers, in ×10⁻⁶ cm/s.

COc1ccc2c(O[C@@H]3C[C@H]4C(=O)N[C@]5(C(=O)NS(=O)(=O)C6(C)CC6)C[C@H]5/C=C\CCCCCNC(=O)N4C3)cc(-c3nc(C(C)C)cs3)nc2c1    31
COc1ccc2c(O[C@@H]3C[C@H]4C(=O)N[C@]5(C(=O)NS(=O)(=O)C6(C)CC6)C[C@H]5/C=C\CCCCNC(=O)N4C3)cc(-c3nc(C(C)C)cs3)nc2c1    8.6
COc1ccc2c(O[C@@H]3C[C@H]4C(=O)N[C@]5(C(=O)NS(=O)(=O)C6CC6)C[C@H]5/C=C\CCCCCNC(=O)N4C3)cc(-c3nc(C(C)C)cs3)nc2c1    11

Suppose we examine the molecule `COc1ccc2c(O[C@@H]3C[C@H]4C(=O)N[C@]5(C(=O)NS(=O)(=O)C6CC6)C[C@H]5/C=C\CCCCNC(=O)N4C3)cc(-c3nc(C(C)C)cs3)nc2c1` ; what Papp at 120 min, 10 μM value has been reported?
3.6
